biological target: Neuropilin-1 (Homo sapiens, UniProt O14786); experiment: Inhibition of biotinylated VEGF165 binding to recombinant NRP1 at 100 uM after 2 hrs by competitive binding assay
Sequence (O14786 whole entry): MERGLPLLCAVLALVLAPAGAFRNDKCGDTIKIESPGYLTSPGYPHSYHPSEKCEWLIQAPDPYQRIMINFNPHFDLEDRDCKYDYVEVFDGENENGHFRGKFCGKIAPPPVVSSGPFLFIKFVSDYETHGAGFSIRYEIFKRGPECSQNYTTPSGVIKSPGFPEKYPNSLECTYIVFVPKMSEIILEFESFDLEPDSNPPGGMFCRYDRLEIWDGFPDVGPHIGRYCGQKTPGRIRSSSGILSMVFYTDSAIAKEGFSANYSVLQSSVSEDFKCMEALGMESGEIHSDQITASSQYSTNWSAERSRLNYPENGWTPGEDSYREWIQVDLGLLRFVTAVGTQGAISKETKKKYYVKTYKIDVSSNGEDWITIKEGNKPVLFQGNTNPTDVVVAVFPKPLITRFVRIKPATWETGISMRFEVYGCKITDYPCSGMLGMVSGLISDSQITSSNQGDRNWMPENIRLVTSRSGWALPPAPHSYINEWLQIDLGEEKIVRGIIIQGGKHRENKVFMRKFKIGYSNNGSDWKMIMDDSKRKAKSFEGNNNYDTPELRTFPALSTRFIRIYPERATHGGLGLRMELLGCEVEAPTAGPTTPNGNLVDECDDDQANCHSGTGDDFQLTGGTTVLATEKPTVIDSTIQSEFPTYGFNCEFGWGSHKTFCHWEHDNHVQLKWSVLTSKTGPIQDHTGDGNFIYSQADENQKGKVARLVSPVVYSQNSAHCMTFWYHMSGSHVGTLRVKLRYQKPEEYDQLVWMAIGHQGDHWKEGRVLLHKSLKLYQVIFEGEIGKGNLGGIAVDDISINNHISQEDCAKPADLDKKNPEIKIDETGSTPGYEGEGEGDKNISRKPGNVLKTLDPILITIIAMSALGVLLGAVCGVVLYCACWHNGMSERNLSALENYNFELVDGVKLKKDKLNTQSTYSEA
Calls of active or inactive are those of the source. The rule behind the calls is not given here.
Assay metric: inhibition

The cases that follow already have their inhibition on record.
C[C@@H](O)CNC(=O)C[C@H]1O[C@@H](CNCc2ccccc2)[C@H]2OC(C)(C)O[C@H]21: Active
CC1(C)O[C@@H]2[C@H](O1)[C@H](CN1CCN(C(=N)N)C1=O)O[C@@H]2CC(=O)NCCc1c[nH]c2ccccc12: Active
CC1(C)O[C@@H]2[C@H](O1)[C@H](CNCc1ccncc1)O[C@@H]2CC(=O)NCCc1c[nH]c2ccccc12: Active
C[C@@H](O)CNC(=O)C[C@H]1O[C@@H](CNCCNc2ccccn2)[C@H]2OC(C)(C)O[C@H]21: Active
C[C@@H](O)CNC(=O)C[C@H]1O[C@@H](CNCc2ccncc2)[C@H]2OC(C)(C)O[C@H]21: Active
CC(=O)O[C@H](C)CNC(=O)C[C@H]1O[C@@H](CNCc2nc3ccccc3[nH]2)[C@H]2OC(C)(C)O[C@H]21: Active
CC(=O)O[C@H](C)CNC(=O)C[C@H]1O[C@@H](CNCCNC(=N)N)[C@H]2OC(C)(C)O[C@H]21: Active
CC1(C)O[C@@H]2[C@H](O1)[C@H](CNCCc1nc3ccccc3[nH]1)O[C@@H]2CC(=O)NCCc1c[nH]c2ccccc12: Active

Here are 5 molecules. What values of inhibition were reported for them?
1. C[C@@H](O)CNC(=O)C[C@H]1O[C@@H](CNCCc2nc3ccccc3[nH]2)[C@H]2OC(C)(C)O[C@H]21
2. CC1(C)O[C@@H]2[C@H](O1)[C@H](CNCCN)O[C@@H]2CC(=O)NCCc1c[nH]c2ccccc12
3. CC(=O)O[C@H](C)CNC(=O)C[C@H]1O[C@@H](CNCCc2nc3ccccc3[nH]2)[C@H]2OC(C)(C)O[C@H]21
4. CC1(C)O[C@@H]2[C@H](O1)[C@H](CNCCNc1ccccn1)O[C@@H]2CC(=O)NCCc1c[nH]c2ccccc12
5. CC(=O)O[C@H](C)CNC(=O)C[C@H]1O[C@@H](CNCCN/C(=N\C(=O)OC(C)(C)C)NC(=O)OC(C)(C)C)[C@H]2OC(C)(C)O[C@H]21

Result ::
1. Active
2. Active
3. Active
4. Active
5. Active

Here are 2 molecules. What values of inhibition were reported for them?
1. COC(=O)[C@H](CCCNC(=N)N)NC[C@@H]1O[C@H](CC(=O)NCCc2c[nH]c3ccccc23)[C@@H]2OC(C)(C)O[C@@H]21
2. CC1(C)O[C@@H]2[C@H](O1)[C@H](CN(CCNC(=N)N)C(=N)N)O[C@@H]2CC(=O)NCCc1c[nH]c2ccccc12

Result ::
Active
65%
